- System: MOLT-4
- ASSAY NAME: NCI tumour cell line growth inhibition, 48 h
Active and inactive are the calls of the source. Cut-off read from the data, not from the text of the source: active = GI50 up to about 1.1 µM and inactive = higher.
Pick one: yes for active, no for inactive

Req: What did this assay record as the result for O=C(O)C1C(C(=O)Nc2ccc3c(c2)Cc2ccccc2-3)C2(Cl)C(Cl)=C(Cl)C1(Cl)C2(Cl)Cl (stereo not given) ?
Resp: no

Req: What did this assay record as the result for O=C1CC2(CCC3=C(O2)c2ccccc2NC(=O)C3)C(=O)c2ccccc2N1 (stereo not given) ?
Resp: no

Req: What did this assay record as the result for CCNC(=O)CCN(C(=O)O)S(=O)(=O)c1ccc(NC(=O)c2ccccc2)cc1 ?
Resp: no

Req: What did this assay record as the result for CN(C)CCCNc1ccc2ncn3c4ccc(O)cc4c(=O)c1c23 ?
Resp: yes

Req: What did this assay record as the result for COC(=O)/C=C(/C(=O)OC)c1cc2ccc3c([nH]c4ccccc43)c(C)c-2c1 ?
Resp: no

---

- Tested on: XF498
- ASSAY NAME: NCI tumour cell line growth inhibition, 48 h
The source made the active and inactive calls. Rule as the data show it: active = GI50 up to about 1.1 µM and inactive = higher.
Kindly state GI50 for each of the entries shown.

Req: # returns recorded GI50 (system: XF498) for NC(=O)CCCC(NCc1c2ccccc2nc2ccccc12)C(=O)O (centres undefined)
Resp: 21 µM (inactive)

Req: # returns recorded GI50 (system: XF498) for CN(C(=O)C12C3C4C1C1C2C3C41C(=O)N(C)C(C)(C)C)C(C)(C)C (centres undefined)
Resp: > 50 µM (inactive)

Req: # returns recorded GI50 (system: XF498) for COC1(OC)C2(Cl)C(Cl)=C(Cl)C1(Cl)C1C=CC=CC12 (centres undefined)
Resp: 46.6 µM (inactive)

Req: # returns recorded GI50 (system: XF498) for COC(=O)Cc1cc(=O)n2c3ccccc3n(C)c2c1C#N
Resp: > 100 µM (inactive)

Req: # returns recorded GI50 (system: XF498) for COC1OC(CO)C(O)C(NC(=O)N(C)N=O)C1O (centres undefined)
Resp: > 100 µM (inactive)

Req: # returns recorded GI50 (system: XF498) for CC(N)Cc1ccc(C(=O)Cl)cc1 (centres undefined)
Resp: > 100 µM (inactive)

Req: # returns recorded GI50 (system: XF498) for COC(=O)C1CC2CC(=NNC(N)=O)CC2C1 (centres undefined)
Resp: > 100 µM (inactive)

Req: # returns recorded GI50 (system: XF498) for COC(=O)C1=C(O)c2cc(OC)c(OC)c(OC)c2[C@H](c2cc(OC)c(OC)c(OC)c2)C1C(=O)OC (some centres undefined)
Resp: 51.8 µM (inactive)

Req: # returns recorded GI50 (system: XF498) for CCCc1ccc(NCc2cc(OC)c(OC)c(OC)c2)cc1
Resp: 18.9 µM (inactive)

---

Kindly state GI50 for each of the entries shown.
- Tested on: MDA-N
- ASSAY NAME: NCI tumour cell line growth inhibition, 48 h
Calls of active or inactive are those of the source. Rule as the data show it: active = GI50 up to about 1.1 µM and inactive = higher.

Req: Fill in the blank: the reported GI50 of CN(C)CCCC1c2ccccc2Oc2ccc(C(F)(F)F)cc21 (configuration not stated) is ____.
Resp: 4.02 µM (inactive)

Req: Fill in the blank: the reported GI50 of C#CCOC(=O)C(N)CSSCC(N)C(=O)O (configuration not stated) is ____.
Resp: > 100 µM (inactive)

Req: Fill in the blank: the reported GI50 of C=C1CC[C@H]2C(=O)OC(c3ccoc3)C[C@]2(C)C/C=C\C=C/1C(=O)OC (some centres not stated) is ____.
Resp: > 25 µM (inactive)

Req: Fill in the blank: the reported GI50 of COC1C(OC(=O)c2ccc(C)[nH]2)C(O)C(Oc2ccc3c(O)c(NC(=O)c4ccc(O)c(CC=C(C)C)c4)c(=O)oc3c2Cl)OC1(C)C (configuration not stated) is ____.
Resp: 23 µM (inactive)

Req: Fill in the blank: the reported GI50 of O=C1/C(=C2/CCCN2)C(c2ccc[nH]2)=NN1c1ccccc1 is ____.
Resp: > 100 µM (inactive)

Req: Fill in the blank: the reported GI50 of CCOC(=O)[C@@H]1ON2O[C@H](OC3CCCCC3c3ccccc3)C[C@H]3OC(=O)[C@@H]1C32 (some centres not stated) is ____.
Resp: > 100 µM (inactive)

Req: Fill in the blank: the reported GI50 of CC(C)(C)C1CCC2c3c([nH]c4ccccc34)C3C(=O)N(c4cc(Br)cc(Br)c4)C(=O)C3C2C1 (configuration not stated) is ____.
Resp: 31.9 µM (inactive)

---

- Test system: HCC 2998
- ASSAY NAME: NCI tumour cell line growth inhibition, 48 h
The source made the active and inactive calls. Cut-off read from the data, not from the text of the source: active = GI50 up to about 1.1 µM and inactive = higher.
MEASURE: GI50

Req: Fill in the blank: the reported GI50 of COc1ccc(C(=O)C(C(=O)C(=O)Nc2nc3ccc(OC)cc3s2)c2ccc(OC)cc2)cc1 (centres undefined) is ____.
Resp: > 100 µM (inactive)

Req: Fill in the blank: the reported GI50 of COc1ccc(N2C(=O)[C@@H](N=[N+]=[N-])[C@@H]2[C@H]2COC(C)(C)O2)cc1 is ____.
Resp: > 100 µM (inactive)

Req: Fill in the blank: the reported GI50 of Cc1ncc(CI)c(CI)c1O is ____.
Resp: 18.8 µM (inactive)

Req: Fill in the blank: the reported GI50 of COc1cc(Cn2c3ccccc3c3cc(C)cc(OC)c32)cc2c1[nH]c1ccccc12 is ____.
Resp: > 25 µM (inactive)

Req: Fill in the blank: the reported GI50 of COc1ccc2nc3ccc(OC)cc3c(SCc3ccccc3)c2c1 is ____.
Resp: 38.8 µM (inactive)

Req: Fill in the blank: the reported GI50 of Cc1ccc(SC[C@@]2(C(F)F)NC(=O)NC2=O)cc1 is ____.
Resp: > 100 µM (inactive)

Req: Fill in the blank: the reported GI50 of Nc1cc(S(=O)(=O)O)cc2ccc(S(=O)(=O)O)cc12 is ____.
Resp: > 100 µM (inactive)

Req: Fill in the blank: the reported GI50 of COc1ccc(NC(S)=Nc2cccc(C)n2)cc1 is ____.
Resp: > 100 µM (inactive)

Req: Fill in the blank: the reported GI50 of COc1cc(-c2c3c([nH]c(=O)c2C#N)-c2cc([N+](=O)[O-])ccc2CCC3)cc(OC)c1OC is ____.
Resp: 17.2 µM (inactive)

Req: Fill in the blank: the reported GI50 of Nc1c(Cl)ncnc1N[C@@H]1C[C@H]1CO is ____.
Resp: > 100 µM (inactive)

Req: Fill in the blank: the reported GI50 of COC(=O)c1cc(C)ccc1/C=C1\Cc2cc(C)c(C)cc2C1=O is ____.
Resp: > 100 µM (inactive)

Req: Fill in the blank: the reported GI50 of COC1/C=C/C(C)C(OC)CC(O)/C=C/C(C)C(C(C)C(OC)C(C)CCC(=O)C(C)C(C/C=C/N(C)C=O)OC)OC(=O)/C=C/C=C(\C)CC(OC)C(OC)C2=CC(=O)O[C@@H](C(C)C(OC)C1)[C@H]2O (some centres undefined) is ____.
Resp: 0.0182 µM (active)

Req: Fill in the blank: the reported GI50 of COc1ccc2c(c1)CC[C@@H]1[C@@H]2CC[C@]2(C)[C@@H](O)/C(=C/c3ccncc3)C[C@@H]12 is ____.
Resp: 8.59 µM (inactive)

Req: Fill in the blank: the reported GI50 of CCOC(=O)c1ccc(Nc2nc3ccc(C(F)(F)F)cc3nc2-c2ccccc2)cc1 is ____.
Resp: 84.1 µM (inactive)

Req: Fill in the blank: the reported GI50 of CC(=O)O[C@H]1CC[C@@]2(C)C(=CC[C@H]3C4=CC=C(C(C)=O)[C@@]4(C)CCC32)C1 (some centres undefined) is ____.
Resp: 48.4 µM (inactive)

Req: Fill in the blank: the reported GI50 of C[n+]1c2ccccc2c(CNC(CS)C(=O)O)c2ccccc21 (centres undefined) is ____.
Resp: 31.5 µM (inactive)

Req: Fill in the blank: the reported GI50 of CC(=O)N(C)C=C1C(=O)N(C)C(=O)N(C)C1=O is ____.
Resp: > 100 µM (inactive)

Req: Fill in the blank: the reported GI50 of COC(=O)CCC(NC(=S)N/N=C(\C)c1cnccn1)C(=O)OC (centres undefined) is ____.
Resp: 56.5 µM (inactive)

Req: Fill in the blank: the reported GI50 of Cc1ccc(N2C(N)=C(C#N)C(C#N)(C#N)C2c2ccccc2)cc1 (centres undefined) is ____.
Resp: 13 µM (inactive)

---

- System: SK-MEL-5
- ASSAY NAME: NCI tumour cell line growth inhibition, 48 h
Calls of active or inactive are those of the source. No stated cut-off is given here; in the data, active = GI50 up to about 1.1 µM and inactive = higher.
Kindly state GI50 for each of the entries shown.

Req: Fill in the blank: the reported GI50 of CCOC(=O)c1cc2c3c(cc(OC)c2[nH]1)N(C(=O)OCC)CC3 is ____.
Resp: > 100 µM (inactive)

Req: Fill in the blank: the reported GI50 of CCOC(=O)c1nc2cc(C(F)(F)F)ccc2nc1Oc1ccc(OC)cc1 is ____.
Resp: > 100 µM (inactive)

Req: Fill in the blank: the reported GI50 of Brc1cccc(Nc2nc(-c3cccs3)nc3ccc(Br)cc23)c1 is ____.
Resp: 14 µM (inactive)

Req: Fill in the blank: the reported GI50 of CCN1C(=O)CS/C1=N/NC(=O)C(O)(c1ccccc1)C1C=CC=CC1 (configuration not stated) is ____.
Resp: > 10 µM (inactive)

Req: Fill in the blank: the reported GI50 of CSc1nc(C)c2c(n1)SCC2 is ____.
Resp: > 10 µM (inactive)

Req: Fill in the blank: the reported GI50 of CN1C(=O)C(=Cc2ccc(Br)cc2)C(=O)N(C)C1=O is ____.
Resp: > 100 µM (inactive)

Req: Fill in the blank: the reported GI50 of CCO[C@@H]1CCC([S+]([O-])c2ccc(C)cc2)=CO1 (some centres not stated) is ____.
Resp: > 100 µM (inactive)

Req: Fill in the blank: the reported GI50 of O=C(O)C1C(C(=O)Nc2ccc3c(c2)Cc2ccccc2-3)C2(Cl)C(Cl)=C(Cl)C1(Cl)C2(Cl)Cl (configuration not stated) is ____.
Resp: 14.2 µM (inactive)

Req: Fill in the blank: the reported GI50 of CC(=O)N(C)C=C1C(=O)N(C)C(=O)N(C)C1=O is ____.
Resp: > 100 µM (inactive)

Req: Fill in the blank: the reported GI50 of C=CCn1c(-c2ccc(Cl)cc2)cs/c1=N\c1ccccc1OC is ____.
Resp: 2.31 µM (inactive)

Req: Fill in the blank: the reported GI50 of C=CCOCn1cc(F)c(=O)[nH]c1=O is ____.
Resp: > 100 µM (inactive)

Req: Fill in the blank: the reported GI50 of N=C(N)/N=C(\N)Nc1cnccn1 is ____.
Resp: > 100 µM (inactive)

Source of measurements: ChEMBL document CHEMBL1201862
